- ASSAY_COMMENT: in vivo
- EXPERIMENTAL_CONDITIONS: mouse, in vivo, ip, LD50 i.p., i.p., 24 hours after administration, male ddY mice
REPORTED_METRIC: LD50 at 24 h

CCCCCCC[N+](CC)(CC)CCCOc1ccc2c(c1)OCC2=O.[Br-] [Compound 286]: 100 to 500 mg/kg

Exercise: # LD50 at 24 h lookup, item CCCCCCCN(CC)CCCOc1ccc2c(c1)OCC2=O.Cl [Compound 102]
Solution: ~100 mg/kg

* * *

# activation at 1 µg/mL values compiled below
- Tested on: Purkinje fiber
- ASSAY_COMMENT: Effect on APD (APD75, field-stimulated right ventricular free wall)
- Assay type: cell-based, adult mongrel dog
- EXPERIMENTAL_CONDITIONS: Canis lupus familiaris, purkinje, 20 min, dose 1 μg/ml, 20 minutes incubation, 37° C., 1 Hz; control before drug = 100%; read-out: APD75 % (percent change in APD75)
Write the value in % as a bare number.

Use the examples below as a reference point.
CCCCCCCN(CC)CCOc1ccc2c(c1)OCC2=O [Compound 196]: 7
CCCCN(CCCOc1ccc2c(c1)OCC2=O)CC(C)C [Compound 128]: 9
CCCCCCCN(CC)CCCOc1ccc2c(c1)OCC2=O [Compound 100]: 21

Exercise: # query: activation at 1 µg/mL of entry C=CCN(CCCOc1ccc2c(c1)OCC2=O)C1CCCCC1 [Compound 160]
Solution: 0

Exercise: Please answer likewise for CCCCCCC[N+](CC)(CC)CCCOc1ccc2c(C)c(C)c(=O)oc2c1 [Compound 634]
Solution: 4

Exercise: Also check O=C1COc2cc(OCCCN3CCC(c4ccccc4)CC3)ccc21 [Compound 1139]
Solution: 33

Exercise: And for O=C1COc2cc(OCCCN3CCOCC3)ccc21 [Compound 1166] ?
Solution: 4

Exercise: Next up: C=CCc1ccccc1OCC(O)C[N+](C)(C)C(C)C (stereo not shown) [Compound 1020]
Solution: 10

Exercise: Also, COCCN(CCCOc1ccc2c(c1)OCC2=O)CCOC [Compound 276] please.
Solution: 5

Exercise: Please do the same for CCCCCCCN(CC)CCCOc1ccc2c(c1OC)OCC2=O [Compound 244] as well.
Solution: 6

Exercise: Also, CCCCCCC[N+](CC)(CC)CCCOc1ccc2c(c1)CCC2 [Compound 770] please.
Solution: 0

Exercise: Subsequent entry: CCCCCCC[N+](CC)(CC)CCCOc1ccc2c(c1)OCC2O (stereo not shown) [Compound 470]
Solution: 13

Exercise: What about this compound? CCCN(CCCOc1ccc2c(c1)OCC2=O)CCOC [Compound 180]
Solution: 5

Exercise: Next compound up: CC1CCN(CCCOc2ccc3c(c2)OCC3=O)CC(C)C1 (stereo not shown) [Compound 1194]
Solution: 16

Exercise: Another compound: CCCCCCC[N+](CC)(CC)CCCOc1ccc2ccc(=O)oc2c1 [Compound 638]
Solution: 0

Exercise: Further, for CCCCCCC[N+](CC)(CC)CCCOc1ccc2c(c1)OCC2 [Compound 422] ?
Solution: 0
